Hello, the source for this data is patent US12590062B2, in case you need it.

system under test: PD-1/PD-L1 (Homo sapiens)
Sequence (Q9NZQ7 19-238 limits assumed): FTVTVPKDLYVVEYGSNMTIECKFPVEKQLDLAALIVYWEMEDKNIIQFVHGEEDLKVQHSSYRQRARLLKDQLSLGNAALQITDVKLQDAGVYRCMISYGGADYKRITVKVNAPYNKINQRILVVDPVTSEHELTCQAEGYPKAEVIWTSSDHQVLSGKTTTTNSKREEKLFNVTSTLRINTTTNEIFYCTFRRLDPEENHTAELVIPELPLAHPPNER
measurement protocol: PD-1/PD-L1 biochemical protein-protein interaction assay (ALPHA)
particulars: 0.3 nM His tagged PD-L1, 2.5 nM biotinylated Fc-PD-1, 60 minutes at 25° C., read-out: IC50 PD-L1-PD-1 Alpha IC50-mono PD-L1-fcP-D1

compound	IC50 / nM
COc1nc(-c2cccc(-c3cccc(-c4ccc5c(CN(C)C)c[nH]c5c4)c3Cl)c2Cl)ccc1CNC[C@@H]1CCC(=O)N1 [Example 610]	0.746
COc1nc(Oc2cccc(-c3cccc(-c4ccc(CNC[C@@H]5CCC(=O)N5)c(OC)n4)c3Cl)c2Cl)ccc1CNC[C@@H]1CCC(=O)N1 [Example 428]	1.37
CNCc1cccc(-c2cccc(-c3cccc(COc4cc(OCc5cncc(C#N)c5)c(CN[C@@](C)(CO)C(=O)O)cc4Cl)c3C)c2C)c1 [Example 358]	0.137
COc1nc(OCc2cccc(-c3cccc(COc4nc(OC)c(CN5CC[C@H]5C(=O)O)cc4Br)c3C)c2C)ccc1CN1CC[C@H]1C(=O)O [Example 60]	2.3
Cc1c(COc2cc(OCc3cncc(C#N)c3)c(CN3CC[C@@H]3CO)cc2Br)cccc1-c1cccc(COc2cc(OCc3cncc(C#N)c3)c(CN3CC[C@@H]3CO)cc2Br)c1C [Example 258]	6.3
COc1nc(O[C@H]2CCc3c(-c4cccc(-c5cnc(CNC[C@H]6C[C@H](O)C6)c(OC)n5)c4Cl)cccc32)c(Cl)cc1CN1CC[C@H](C(=O)O)C1 [Example 711]	0.069
Cc1c(COc2cc(OCc3cncc(C#N)c3)c(CNC[C@H](O)CO)cc2Br)cccc1-c1cccc(COc2cc(OCc3cncc(C#N)c3)c(CNC[C@H](O)CO)cc2Br)c1C [Example 259]	22.7
CS(=O)(=O)c1cncc(COc2nc(O[C@H]3CCc4c(-c5cccc(-c6ccc(OCCN7CC[C@@H](O)C7)cc6)c5Cl)cccc43)c(Cl)cc2CNC[C@@H](O)CC(=O)O)c1 [Example 666]	0.076
Cc1c(COc2nc(OCc3cncc(C#N)c3)c(CNCCO)cc2Cl)cccc1-c1cccc(COc2nc(OCc3cncc(C#N)c3)c(CNCCO)cc2Cl)c1C [Example 35]	15.6
Cc1c(COc2cc(OCc3cncc(C#N)c3)c(CN[C@@](C)(CO)C(=O)O)cc2Cl)cccc1-c1cccc(-c2ccc(OCCN[C@@](C)(CO)C(=O)O)cc2)c1C [Example 313]	0.051
CNC(=O)COc1cc(-c2cccc(-c3cccc(COc4cc(OCc5cncc(C#N)c5)c(CNC[C@@H](O)CC(=O)O)cc4Cl)c3C)c2C)ccc1C1=NCCN1 [Example 436]	0.064

----------
system under test: PD-L1 (Homo sapiens, UniProt Q9NZQ7)
Construct: determine if they can specifically dimerize the extracellular domains of PD-L1
Sequence (Q9NZQ7 19-238 limits assumed): as above
Sequence (Q9NZQ7 19-238 limits assumed): as above
measurement protocol: PD-L1/PD-L1 dimerization biochemical protein-protein interaction assay (ALPHA)
Type: binding
particulars: compound-induced PD-L1 dimerization, head prints '1 nM' (0.5 nM His-tagged PD-L1 and 0.5 nM FLAG-tagged PD-L1), read-out: AC50 PDL1 Dimer Alpha 1 nM
measured property: log10 AC50 (log10 of the value in nM)

compound	log10 AC50
CCOC(=O)[C@@H]1CCN(Cc2cc(Cl)c(O[C@H]3CCc4c(-c5cccc(-c6ccc(CN7CC8(C7)CN(C(C)=O)C8)cc6)c5Cl)cccc43)nc2OC)C1	2.85
COc1nc(-c2cccc(-c3cccc(-c4ccn5cc(CN(C)C)nc5c4)c3Cl)c2Cl)ccc1CN(C)C	2.42
Cc1c(COc2cc(OCc3cncc(C#N)c3)c(CNC[C@@H](O)CC(=O)O)cc2Cl)cccc1-c1cccc(-c2ccc(CNC[C@@H](O)CC(=O)O)c(OCC#N)c2)c1C	2.22
COc1nc(O[C@H]2CCc3c(-c4cccc(-c5ccc(CNC[C@@H]6CCC(=O)N6)cc5)c4Cl)cccc32)c(Cl)cc1CN[C@@H]1CCC[C@@H]1O	1.21
Cc1c(COc2cc(OCc3cncc(C#N)c3)c(CN[C@@](C)(CO)C(=O)O)cc2Cl)cccc1-c1cc(F)cc(-c2ccc(CN(C)C)cc2)c1Cl	1.69
Cc1c(COc2cc(OCc3cncc(C#N)c3)c(CNC[C@@H](O)CC(=O)O)cc2Cl)cccc1-c1cccc(-c2cnc3c(Cl)cc(CNC[C@@H](O)CC(=O)O)cc3c2)c1C	2.27
COc1nc(O[C@H]2CCc3c(-c4cccc(-c5nc6cc(CNCCO)ccn6n5)c4Cl)cccc32)c(Cl)cc1CNCCO	1.38
COc1nc(-c2cccc(-c3cccc4c3CC[C@@H]4Oc3nc(OC)c(CN4CC(C(=O)O)C4)cc3Cl)c2Cl)ccc1CN1CC2(CCC(=O)N2)C1	1.84
COc1nc(O[C@H]2CCc3c(-c4cccc5c4CC[C@@H]5Oc4nc(OCc5cncc(C#N)c5)c(CNC[C@@H](O)CC(=O)O)cc4Br)cccc32)c(Br)cc1CNC[C@@H](O)CC(=O)O	2.00
COc1nc(-c2cccc(-c3cccc4c3CC[C@@H]4Oc3nc(OC)c(CN4C[C@@H](C)[C@H](C(=O)O)C4)cc3Cl)c2Cl)ccc1CNC[C@@H]1CCC(=O)N1	1.12
COc1nc(OCc2cccc(-c3cccc(-c4ccc5c(c4)C[C@@H](N)C5)c3Cl)c2Cl)c(Br)cc1CN[C@@](C)(CO)C(=O)O	1.94
COc1cc(-c2cccc(-c3cccc(-c4ccc(CNC[C@@H](O)CC(=O)O)c(OC)c4)c3C)c2C)ccc1CNC[C@@H](O)CC(=O)O	3.07
Cc1c(COc2cc(OCc3cncc(C#N)c3)c(CN3CC[C@@H](O)C3)cc2Cl)cccc1-c1cccc(-c2ccc3c(c2)CCC3N2CC[C@@H](C(=O)O)C2)c1C (stereo partly shown)	1.91
Cc1c(COc2cc(OCc3cncc(C#N)c3)c(CNC[C@@H](O)CC(=O)O)cc2Cl)cccc1-c1cccc(-c2ccc3c(c2)CC(N2CC(C)(O)C2)C3)c1C (stereo partly shown)	2.52
Cc1c(COc2cc(OCc3cncc(C#N)c3)c(CNC[C@@H](O)CC(=O)O)cc2Cl)cccc1-c1cccc(-c2ccc(CNCc3cncc(C#N)c3)cc2)c1C	3.08
COc1nc(-c2cccc(-c3cccc4c3CC[C@@H]4Oc3nc(OCc4cncc(C#N)c4)c(CNC(C)(C)C(=O)O)cc3Cl)c2Br)ccc1C1=NCCN1	2.52
COc1nc(O[C@H]2CCc3c(-c4cccc(-c5cnc(CNC[C@@H]6CCC(=O)N6)c(OC)n5)c4Cl)cccc32)c(Cl)cc1CN[C@@H]1CCC[C@@H]1O	1.83
Cc1c(COc2cc(OCc3cncc(C#N)c3)c(CNC[C@@H](O)CC(=O)O)cc2Cl)cccc1-c1cccc(-c2ccc(C3=NCCN3)c(OC(F)F)c2)c1C	1.94
COc1nc(-c2cccc(-c3cccc4c3CC[C@@H]4Oc3nc(OC)c(CNC[C@@H]4CCC(=O)N4)cc3Cl)c2Cl)ccc1CN[C@@H]1CCC[C@@H]1O	2.13
Cc1c(COc2cc(OCc3cncc(C#N)c3)c(CN[C@@](C)(CO)C(=O)O)cc2Cl)cccc1-c1cccc(-c2ccc(CN3CC[C@H](O)C3)cc2)c1C	2.04
